test: Half life in ICR mouse at 5 mg/kg, iv by LC-MS/MS analysis; format: ADME, organism-based; details: in vivo
Recorded Metric: half-life (h)
State the answer as a number, implicitly in h.

Quick note, half-life for CCCN(CCCCNC(=O)c1ccc2ccccc2c1)C[C@@H]1C[C@H]1c1cccc(Cl)c1Cl.Cl landed at 1.51

Quick note, half-life for CCCN(CCCCNC(=O)c1cc2ccccc2[nH]1)C[C@@H]1C[C@H]1c1cccc(Cl)c1Cl.Cl landed at 3.12

Quick note, half-life for CCCN(CCCCNC(=O)c1ccc(-c2ccccn2)cc1)C[C@@H]1C[C@H]1c1cc(F)ccc1OC.Cl landed at 0.437

Quick note, half-life for CCCN(CCCCNC(=O)c1ccc(-c2ccccn2)cc1)C[C@@H]1C[C@H]1c1cccc(Cl)c1Cl.Cl landed at 0.576

====

experiment: Clearance in ICR mouse at 5 mg/kg, iv by LC-MS/MS analysis; format: ADME, organism-based; conditions: in vivo
Recorded Metric: clearance (mL/min/kg)
State the answer as a number, implicitly in mL/min/kg.

Consider the reported clearance for these compounds:
Molecule Smiles: CCCN(CCCCNC(=O)c1ccc(-c2ccccn2)cc1)C[C@@H]1C[C@H]1c1cccc(Cl)c1Cl.Cl
Unit Abbrev: mL/min/kg
Numeric Result: 84.8

Molecule Smiles: CCCN(CCCCNC(=O)c1cc2ccccc2[nH]1)C[C@@H]1C[C@H]1c1cccc(Cl)c1Cl.Cl
Unit Abbrev: mL/min/kg
Numeric Result: 117

Quick note, clearance for CCCN(CCCCNC(=O)c1ccc2ccccc2c1)C[C@@H]1C[C@H]1c1cccc(Cl)c1Cl.Cl landed at 134

Quick note, clearance for CCCN(CCCCNC(=O)c1ccc(-c2ccccn2)cc1)C[C@@H]1C[C@H]1c1cc(F)ccc1OC.Cl landed at 126

====

# pKi per entry
Biological target: UniProtKB P21917
Sequence (P21917 whole entry): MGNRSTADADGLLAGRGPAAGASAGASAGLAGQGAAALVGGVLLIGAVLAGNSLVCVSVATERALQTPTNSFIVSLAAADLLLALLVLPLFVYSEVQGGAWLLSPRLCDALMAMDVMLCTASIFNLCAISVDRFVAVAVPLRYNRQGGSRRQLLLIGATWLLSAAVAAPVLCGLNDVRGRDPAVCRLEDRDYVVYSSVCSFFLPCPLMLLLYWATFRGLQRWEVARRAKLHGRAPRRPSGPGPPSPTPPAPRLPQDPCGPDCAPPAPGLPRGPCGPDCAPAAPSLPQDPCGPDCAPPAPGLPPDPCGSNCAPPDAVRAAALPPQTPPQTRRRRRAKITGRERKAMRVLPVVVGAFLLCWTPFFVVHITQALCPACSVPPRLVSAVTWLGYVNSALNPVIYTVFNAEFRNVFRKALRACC
Assay: Displacement of [3H]-N-methylspiperone from recombinant human D4 receptor stably expressed in HEK cell membranes measured after 90 mins by microbeta scintillation counting method
In textbook form, pKi equals minus log to base ten of the concentration in mol/L.

Consider the reported pKi for these compounds:
Compound: COc1ccc(F)cc1C1CC1CN(CCCSc1nnc(-c2ccccc2)n1C)C(C)C (centres undefined)
pKi: 6.49

Compound: CCCN(CCCCNC(=O)c1cc2ccccc2[nH]1)CC1CC1c1cccc(Cl)c1 (centres undefined)
pKi: 6.06

Compound: CCCN(CCCCNC(=O)c1cc2ccccc2[nH]1)C[C@H]1C[C@@H]1c1cccc(Cl)c1Cl.Cl
pKi: 6.17

Compound: CCN(CCCCNC(=O)c1ccc2ccccc2c1)CC1CC1c1cc(Cl)ccc1OC (centres undefined)
pKi: 6.26

Compound: CCCN(CCCCNC(=O)c1ccc2ccccc2c1)CC1CC1c1ccc(Cl)cc1 (centres undefined)
pKi: 5.80

Entry CCCN(CCCCNC(=O)c1ccc(-c2ccccn2)cc1)C[C@H]1C[C@@H]1c1cc(F)ccc1OC.Cl : pKi on UniProtKB P21917 = 6.07

Entry CCCN(CCCCNC(=O)c1ccc2ccccc2c1)C[C@@H]1C[C@H]1c1cccc(Cl)c1Cl.Cl : pKi on UniProtKB P21917 = 6.09

Entry CCCN(CCCCNC(=O)c1ccc2ccccc2c1)CC1CC1c1cccc(Cl)c1 (centres undefined) : pKi on UniProtKB P21917 = 5.88

Entry COc1ccc(F)cc1C1CC1CN(CCCSc1nnc(-c2ccccc2)n1C)CC1CC1 (centres undefined) : pKi on UniProtKB P21917 = 6.54
